% inhibition of farnesyltransferase for assorted compounds
MEASURED_TARGET: protein farnesyltransferase (Rattus norvegicus, UniProt Q02293+Q04631)
Construct: Rat brain protein farnesyltransferase activity is measured; from tissue; host or cells: rat brain; purified according to Reiss et al., Cell 62:81-88 (1990), steps one through three
EXPERIMENT_DESCRIPTION: in vitro inhibition of protein farnesyltransferase (scintillation proximity assay, biotin-K Ras B fragment)
Format: biochemical
CONDITION_PARAMETERS: at 1 × 10^-7 M
Hi! Could you send only the number? It should be in %, unit omitted.

In the examples that follow, each entry is paired with its recorded % inhibition of farnesyltransferase.
ENTRY_SMILES	MEASURED_ATTRIBUTE	REPORTED_VALUE
CSCC[C@H](NC(=O)c1ccc(COCc2ccc(-c3ccc(C(C)=O)cc3)o2)cc1-c1ccccc1C)C(=O)[O-].[Li+]	% inhibition of farnesyltransferase	91
CSCC[C@H](NC(=O)c1ccc(COc2cccc3ccccc23)cc1-c1ccccc1C)C(=O)O	% inhibition of farnesyltransferase	81

Qu. # lookup: % inhibition of farnesyltransferase of `CSCC[C@H](NC(=O)c1ccc(CSCCc2ccccc2)cc1-c1ccccc1C)C(=O)[O-].[Li+]`
Ans. 95

Qu. And the next one, `CSCC[C@H](NC(=O)c1ccc(COCc2ccc(C(C)C)cc2)cc1-c1ccccc1C)C(=O)[O-].[Li+]` ?
Ans. 92

---

MEASURED_TARGET: protein farnesyltransferase (Rattus norvegicus, UniProt Q02293+Q04631)
Construct: Rat brain protein farnesyltransferase activity is measured; from tissue; host or cells: rat brain; purified according to Reiss et al., Cell 62:81-88 (1990), steps one through three
EXPERIMENT_DESCRIPTION: in vitro inhibition of protein farnesyltransferase (scintillation proximity assay, biotin-K Ras B fragment)
Format: biochemical
CONDITION_PARAMETERS: at 1 × 10^-6 M; read-out: % inhibition of farnesyltransferase
Structures can show the parent of a compound that is named as a salt.
Classification field: enter Y for inhibition at 1 µM values not below 60%, N for values below it.

COMPOUND	ASSIGNED_CATEGORY
CCS(=O)(=O)C[C@H](CC1CCCCC1)NCc1ccc(C(=O)N[C@@H](CCSC)C(=O)O)c(-c2ccccc2C)c1 [Example 620, Lithium Salt]	Y
CSCC[C@H](NC(=O)c1ccc(CN[C@H](CO)CC2CCCCC2)cc1-c1ccccc1C)C(=O)O	Y
CSCC[C@H](NC(=O)c1ccc(CNC(CC2CCCCC2)C(O)C(O)CC(C)C)cc1-c1ccccc1C)C(=O)O (stereo partly shown)	Y
CSCC[C@H](NC(=O)c1ccc(CNc2ccc(-c3nc4ccccc4s3)cc2)cc1-c1ccccc1)C(=O)O	N
CSCC[C@H](NC(=O)c1ccc(CNCc2ccc(N)cc2)cc1-c1ccccc1)C(=O)O	Y
CCSC[C@H](CC1CCCCC1)NCc1ccc(C(=O)N[C@@H](CCSC)C(=O)O)c(-c2ccccc2C)c1	Y
CSCC[C@H](NC(=O)c1ccc(CN(Cc2ccccc2)c2ccccc2C(C)=O)cc1-c1ccccc1C)C(=O)O [Example 844, lithium salt]	Y
CSCC[C@H](NC(=O)c1ccc(CNc2ccc(OC(F)(F)F)cc2)cc1-c1ccccc1)C(=O)O	N
CSCC[C@H](NC(=O)c1ccc(CNc2ccccc2Oc2ccccc2)cc1-c1ccccc1)C(=O)O	N
CSCC[C@H](NC(=O)c1ccc(CN(CCC#N)Cc2ccccc2)cc1-c1ccccc1)C(=O)O	Y

Qu. Decide: inhibition at 1 µM of CSCC[C@H](NC(=O)c1ccc(CN(Cc2ccccc2)Cc2ccccc2)cc1-c1ccccc1C)C(=O)O [Example 512, lithium salt] >= 60%?
Ans. Y
